Source of measurements: ChEMBL document CHEMBL5303573

- test conditions: victivallis vadensis, 12 h, 2 µM
- Description: The drug is tested on Victivallis vadensis strain: ATCC BAA-548 for biotransformation. The drug concentrations were measured before and after a 12-h incubation by liquid-chromatography-coupled mass spectrometry (LC–MS)
value kind: Bacterial Biotransformation

| compound | result |
| --- | --- |
| Cc1ccc(S(=O)(=O)NC(=O)NN2CC3CCCC3C2)cc1 (stereo unspecified) [GLICLAZIDE] | Compound NOT metabolized |
| CC(=O)OCC(=O)NCCCOc1cccc(CN2CCCCC2)c1 [ROXATIDINE ACETATE] | Compound metabolized |
| CN(C)C(=O)C(CCN1CCC(O)(c2ccc(Cl)cc2)CC1)(c1ccccc1)c1ccccc1 [LOPERAMIDE] | Compound NOT metabolized |
| COc1ccc2c(c1)c(CC(=O)O)c(C)n2C(=O)c1ccc(Cl)cc1 | Compound NOT metabolized |
| C#C[C@]1(OC(C)=O)CC[C@H]2[C@@H]3CCC4=C/C(=N/O)CC[C@@H]4[C@H]3CC[C@@]21CC [NORGESTIMATE] | Compound NOT metabolized |
| OC(CCN1CCCCC1)(c1ccccc1)C1CC2C=CC1C2 (stereo unspecified) | Compound NOT metabolized |
| CC(=O)Oc1ccc(C(c2ccc(OC(C)=O)cc2)c2ccccn2)cc1 | Compound metabolized |
| CCCCCCOC(=O)/N=C(/N)c1ccc(NCc2nc3cc(C(=O)N(CCC(=O)OCC)c4ccccn4)ccc3n2C)cc1.CS(=O)(=O)O [DABIGATRAN ETEXILATE MESYLATE] | Compound NOT metabolized |
| CCC(C)n1ncn(-c2ccc(N3CCN(c4ccc(OCC5COC(Cn6cncn6)(c6ccc(Cl)cc6Cl)O5)cc4)CC3)cc2)c1=O (stereo unspecified) | Compound NOT metabolized |
| CN1CCN(CC/C=C2/c3ccccc3Sc3ccc(S(=O)(=O)N(C)C)cc32)CC1 | Compound NOT metabolized |
| CCS(=O)(=O)CCn1c([N+](=O)[O-])cnc1C | Compound metabolized |
| CN1CCN(C(=O)O[C@H]2c3nccnc3C(=O)N2c2ccc(Cl)cn2)CC1 | Compound NOT metabolized |
| CCOC(=O)[C@H](CCc1ccccc1)N[C@@H](C)C(=O)N1CCC[C@H]1C(=O)O.O=C(O)/C=C\C(=O)O [ENALAPRIL MALEATE] | Compound NOT metabolized |
| CS(=O)(=O)O.O.O.O.O=C1Cc2cc(CCN3CCN(c4nsc5ccccc45)CC3)c(Cl)cc2N1 [ZIPRASIDONE MESYLATE] | Compound NOT metabolized |
| Cc1cc2c(s1)Nc1ccccc1N=C2N1CCN(C)CC1 | Compound NOT metabolized |
| NC(=O)N1c2ccccc2CC(=O)c2ccccc21 [OXCARBAZEPINE] | Compound NOT metabolized |

====

- test conditions: enterocloster bolteae, 12 h, 2 µM
- Description: The drug is tested on Clostridium bolteae strain: ATCCBAA-613 for biotransformation. The drug concentrations were measured before and after a 12-h incubation by liquid-chromatography-coupled mass spectrometry (LC–MS)

| compound | Bacterial Biotransformation |
| --- | --- |
| CC(=O)CC(c1ccccc1)c1c(O)c2ccccc2oc1=O (stereo unspecified) [WARFARIN] | Compound NOT metabolized |
| CCC(COC(=O)c1cc(OC)c(OC)c(OC)c1)(c1ccccc1)N(C)C.O=C(O)/C=C\C(=O)O (stereo unspecified) | Compound metabolized |
| CC[C@@H](CO)NC(=O)[C@@H]1C=C2c3cccc4c3c(cn4C)C[C@H]2N(C)C1.O=C(O)/C=C\C(=O)O [METHYSERGIDE MALEATE] | Compound metabolized |
| CC(=O)O[C@]1(C(C)=O)CC[C@H]2[C@@H]3C=C(Cl)C4=CC(=O)[C@@H]5C[C@@H]5[C@]4(C)[C@H]3CC[C@@]21C [CYPROTERONE ACETATE] | Compound NOT metabolized |
| CC(=O)O[C@H]1C(=O)[C@@]2(C)[C@H]([C@H](OC(=O)c3ccccc3)[C@]3(O)C[C@H](OC(=O)[C@H](O)[C@@H](NC(=O)c4ccccc4)c4ccccc4)C(C)=C1C3(C)C)[C@]1(OC(C)=O)CO[C@@H]1C[C@@H]2O [PACLITAXEL] | Compound NOT metabolized |
| N#Cc1ccc2[nH]cc(CCCCN3CCN(c4ccc5oc(C(N)=O)cc5c4)CC3)c2c1 [VILAZODONE] | Compound NOT metabolized |
